- Test description: chemical recovery into PDMS from spiked human plasma; higher = better extraction
- Condition parameters: pooled human plasma; extraction method: PES with PDMS; equilibration time (d): 1
Classify by measured chemical recovery into PDMS: True if it is equal to or exceeds 4%, False if it is smaller.

Confirm if chemical recovery into PDMS reported for the compound Clc1ccc(Cl)c(-c2cccc(Cl)c2Cl)c1 [PCB44] is 4% or above.
True

# bool: chemical recovery into PDMS of OC(Cn1cncn1)(Cn1cncn1)c1ccc(F)cc1F [Fluconazole] >= 4%
False

Reported chemical recovery into PDMS reaches at least 4% for O=P1(NCCCl)OCCCN1CCCl (stereo not given) [Ifosfamide] ?
False

Dear colleague, could you confirm whether Cc1ccccc1N [o-Toluidine] has chemical recovery into PDMS at or above 4%?
False

Form field: chemical recovery into PDMS at least 4%? Entry: COC(=O)Nc1nc2ccccc2[nH]1 [Carbendazim]
True

Assess whether reported chemical recovery into PDMS for COCC(C)N(C(=O)CCl)c1c(C)csc1C (stereo not given) [Dimethenamid] sits at 4% or higher.
True

Confirm if chemical recovery into PDMS reported for the compound c1ccc(Nc2cccc3ccccc23)cc1 [N-Phenyl-1-naphthylamine] is 4% or above.
True

Kindly determine if chemical recovery into PDMS recorded for CN1CCCC(n2nc(Cc3ccc(Cl)cc3)c3ccccc3c2=O)CC1 (stereo not given) [Azelastine] is above or exactly 4%.
False

API: above_or_equal(metric=chemical recovery into PDMS, cutoff=4%) for item N#Cc1nn(-c2c(Cl)cc(C(F)(F)F)cc2Cl)c(N)c1C(F)(F)F [Fipronil desulfinyl]
True

Check this compound for chemical recovery into PDMS at or above 4%: CN1C(=O)CN=C(c2ccccc2)c2cc(Cl)ccc21 [Diazepam]
True
